Molecular target: T1, cynomolgus CD3 (UniProt Q95LI5 22-198)
T1 chain: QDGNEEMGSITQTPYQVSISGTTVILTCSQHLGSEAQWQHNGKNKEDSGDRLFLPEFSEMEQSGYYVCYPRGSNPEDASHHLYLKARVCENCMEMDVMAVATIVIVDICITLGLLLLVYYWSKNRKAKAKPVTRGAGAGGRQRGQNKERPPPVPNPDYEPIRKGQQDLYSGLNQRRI
Test: FACS binding, HSC-F cells; Fig 2A
endpoint: EC50 (µg/mL)
// units = µg/mL; emit number, no label

Solved entries:
{"binder": "IgG1-CD3-LFLEDA (antibody, V domains shown) VH: EVKLLESGGGLVQPKGSLKLSCAASGFTFNTYAMNWVRQAPGKGLEWVARIRSKYNNYATYYADSVKDRFTISRDDSQSILYLQMNNLKTEDTAMYYCVRHGNFGNSYVSWFAYWGQGTLVTVSA VL: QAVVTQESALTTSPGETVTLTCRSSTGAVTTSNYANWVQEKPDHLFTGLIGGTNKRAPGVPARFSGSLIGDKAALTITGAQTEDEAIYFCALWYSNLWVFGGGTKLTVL", "unitText": "µg/mL", "EC50": 0.3}
{"binder": "IgG1-huCD3-H1L3 (antibody, V domains shown) VH: EVKLVESGGGLVQPGGSLRLSCAASGFTFNTYAMNWVRQAPGKGLEWVARIRSKYNNYATYYADSVKDRFTISRDDSKSSLYLQMNNLKTEDTAMYYCVRHGNFGNSYVSWFAYWGQGTLVTVSS VL: QAVVTQEPSFSVSPGGTVTLTCRSSTGAVTTSNYANWVQQTPGQAFRGLIGGTNKRAPGVPARFSGSILGNKAALTITGAQADDESDYYCALWYSNLWVFGGGTKLTVL", "unitText": "µg/mL", "EC50": 0.28}
{"binder": "IgG1-huCD3-H3L3 (antibody, V domains shown) VH: EVKLVESGGGLVKPGRSLRLSCAASGFTFNTYAMNWVRQAPGKGLEWVARIRSKYNNYATYYADSVKDRFTISRDDSKSILYLQMNSLKTEDTAMYYCVRHGNFGNSYVSWFAYWGQGTLVTVSS VL: QAVVTQEPSFSVSPGGTVTLTCRSSTGAVTTSNYANWVQQTPGQAFRGLIGGTNKRAPGVPARFSGSILGNKAALTITGAQADDESDYYCALWYSNLWVFGGGTKLTVL", "unitText": "µg/mL", "EC50": 0.11}

Task item: What value of EC50 has been recorded for this entry: IgG1-huCD3-H1L2 (antibody, V domains shown) VH: EVKLVESGGGLVQPGGSLRLSCAASGFTFNTYAMNWVRQAPGKGLEWVARIRSKYNNYATYYADSVKDRFTISRDDSKSSLYLQMNNLKTEDTAMYYCVRHGNFGNSYVSWFAYWGQGTLVTVSS VL: QAVVTQEPSFSVSPGGTVTLTCRSSTGAVTTSNYANWVQQTPGQAFRGLIGGTNKRAPGVPARFSGSILGNKAALTITGAQADDESIYFCALWYSNLWVFGGGTKLTVL
Reply: 0.31

The measurements presented in this section are drawn from patent US20160333095A1.
